target: integrin α10β1 ectodomain (Homo sapiens, UniProt O75578+P05556); construct: ectodomain heterodimer; continuous transcript alpha-GGGS-P2A-beta; alpha with ACID coil and C-terminal StrepII tag, beta with BASE coil and His tag; Expi293 cells; beta1 borders printed for the separate vector; assay: fluorescence polarization competition with fluorescent BOP probe
Sequence (O75578 23-1120): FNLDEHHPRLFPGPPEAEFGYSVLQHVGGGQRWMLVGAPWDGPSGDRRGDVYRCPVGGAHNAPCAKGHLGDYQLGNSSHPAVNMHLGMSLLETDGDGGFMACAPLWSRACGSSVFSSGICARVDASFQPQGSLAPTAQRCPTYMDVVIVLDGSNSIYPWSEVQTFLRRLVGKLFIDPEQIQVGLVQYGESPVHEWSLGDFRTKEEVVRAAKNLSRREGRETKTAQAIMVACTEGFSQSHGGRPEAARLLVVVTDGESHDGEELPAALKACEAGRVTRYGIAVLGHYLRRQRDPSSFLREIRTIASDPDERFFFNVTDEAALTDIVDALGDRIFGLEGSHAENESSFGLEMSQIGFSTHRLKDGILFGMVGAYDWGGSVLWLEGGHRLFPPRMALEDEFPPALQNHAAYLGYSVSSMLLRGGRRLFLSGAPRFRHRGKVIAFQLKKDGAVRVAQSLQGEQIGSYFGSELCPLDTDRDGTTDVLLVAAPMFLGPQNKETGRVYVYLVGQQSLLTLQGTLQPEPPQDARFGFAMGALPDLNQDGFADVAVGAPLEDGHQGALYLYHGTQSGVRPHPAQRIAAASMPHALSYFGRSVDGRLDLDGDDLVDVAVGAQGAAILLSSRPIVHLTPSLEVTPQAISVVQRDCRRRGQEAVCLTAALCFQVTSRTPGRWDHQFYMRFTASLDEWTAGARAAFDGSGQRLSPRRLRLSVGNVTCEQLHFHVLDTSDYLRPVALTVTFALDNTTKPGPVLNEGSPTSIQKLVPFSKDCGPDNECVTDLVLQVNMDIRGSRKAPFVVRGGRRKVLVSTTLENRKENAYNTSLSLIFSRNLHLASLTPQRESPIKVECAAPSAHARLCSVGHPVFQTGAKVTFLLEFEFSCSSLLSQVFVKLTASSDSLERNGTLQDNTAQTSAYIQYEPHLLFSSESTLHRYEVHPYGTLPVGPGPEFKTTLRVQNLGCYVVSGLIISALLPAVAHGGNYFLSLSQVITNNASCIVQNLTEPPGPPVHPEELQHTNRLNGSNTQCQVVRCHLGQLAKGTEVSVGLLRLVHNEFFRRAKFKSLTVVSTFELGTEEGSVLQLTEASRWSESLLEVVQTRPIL
Sequence (P05556 21-728): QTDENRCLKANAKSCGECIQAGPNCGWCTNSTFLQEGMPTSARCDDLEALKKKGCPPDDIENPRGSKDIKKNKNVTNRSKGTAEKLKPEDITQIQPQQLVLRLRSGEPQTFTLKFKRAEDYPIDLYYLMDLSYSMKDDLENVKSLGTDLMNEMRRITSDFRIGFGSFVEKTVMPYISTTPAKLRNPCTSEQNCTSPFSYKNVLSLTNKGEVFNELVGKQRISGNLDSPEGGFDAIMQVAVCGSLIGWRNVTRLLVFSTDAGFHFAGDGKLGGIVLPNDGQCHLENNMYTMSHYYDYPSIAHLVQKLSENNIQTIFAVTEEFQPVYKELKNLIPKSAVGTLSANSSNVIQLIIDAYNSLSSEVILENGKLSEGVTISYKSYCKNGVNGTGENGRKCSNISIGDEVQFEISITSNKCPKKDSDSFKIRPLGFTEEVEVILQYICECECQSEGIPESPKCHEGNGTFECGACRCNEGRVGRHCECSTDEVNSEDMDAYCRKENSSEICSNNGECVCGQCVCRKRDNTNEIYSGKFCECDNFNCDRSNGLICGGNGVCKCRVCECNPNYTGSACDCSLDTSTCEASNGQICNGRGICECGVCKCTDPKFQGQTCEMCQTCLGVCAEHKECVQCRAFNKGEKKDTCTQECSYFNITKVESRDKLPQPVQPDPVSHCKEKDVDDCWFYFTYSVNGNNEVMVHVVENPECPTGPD
Parameter measured: IC50 (nM)
Give the number; nM is assumed, so skip it.

Query :: So what's the measured IC50 for this one? O=C(O)[C@H](Cc1ccc(OC(=O)N2CCCC2)cc1)NC(=O)[C@@H]1CCCN1S(=O)(=O)c1ccccc1 [BOP]
Result :: 25.3

* * *

molecular target: integrin α1β1 ectodomain (Homo sapiens, UniProt P05556+P56199); construct: ectodomain heterodimer; alpha with ACID coil and C-terminal StrepII tag, beta with BASE coil and His tag; Expi293 cells, separate pcDNA3.4 vectors; assay: fluorescence polarization competition with fluorescent BOP probe
Sequence (P56199 29-1143): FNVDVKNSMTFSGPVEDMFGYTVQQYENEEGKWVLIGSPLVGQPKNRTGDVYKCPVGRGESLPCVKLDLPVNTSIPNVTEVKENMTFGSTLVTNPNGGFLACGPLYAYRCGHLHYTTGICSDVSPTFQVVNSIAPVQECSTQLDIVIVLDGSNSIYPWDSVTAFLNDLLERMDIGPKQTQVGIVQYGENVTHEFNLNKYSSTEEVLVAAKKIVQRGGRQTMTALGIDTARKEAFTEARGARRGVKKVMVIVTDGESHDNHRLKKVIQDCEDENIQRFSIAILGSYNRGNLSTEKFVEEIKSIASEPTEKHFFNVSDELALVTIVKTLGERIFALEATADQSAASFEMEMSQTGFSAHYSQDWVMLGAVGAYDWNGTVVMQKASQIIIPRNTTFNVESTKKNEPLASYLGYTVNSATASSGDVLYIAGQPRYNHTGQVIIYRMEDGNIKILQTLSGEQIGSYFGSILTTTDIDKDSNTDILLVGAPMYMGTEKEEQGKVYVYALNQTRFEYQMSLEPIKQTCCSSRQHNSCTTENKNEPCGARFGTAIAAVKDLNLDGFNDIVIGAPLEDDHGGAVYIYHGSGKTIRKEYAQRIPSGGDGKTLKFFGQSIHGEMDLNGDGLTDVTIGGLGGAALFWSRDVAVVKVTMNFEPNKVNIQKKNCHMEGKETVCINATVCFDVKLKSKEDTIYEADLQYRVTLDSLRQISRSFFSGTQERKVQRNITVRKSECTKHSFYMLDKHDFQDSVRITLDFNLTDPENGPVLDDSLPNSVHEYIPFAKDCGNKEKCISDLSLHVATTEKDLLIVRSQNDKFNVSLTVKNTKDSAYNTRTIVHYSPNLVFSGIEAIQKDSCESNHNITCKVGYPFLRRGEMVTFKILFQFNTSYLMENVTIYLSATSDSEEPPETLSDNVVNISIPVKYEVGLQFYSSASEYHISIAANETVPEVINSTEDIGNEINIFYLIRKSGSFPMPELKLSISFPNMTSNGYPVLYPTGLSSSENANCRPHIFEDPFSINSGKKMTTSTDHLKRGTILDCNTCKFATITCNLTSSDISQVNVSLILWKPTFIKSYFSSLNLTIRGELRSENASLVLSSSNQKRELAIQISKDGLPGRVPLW
Sequence (P05556 21-728): as the sequence (P05556 21-728) above
Parameter measured: IC50 (nM)
// note: answer is a bare numeric in nM

Query :: Under integrin α1β1 ectodomain (Homo sapiens, UniProt P05556+P56199): IC50 value of O=C(O)[C@H](Cc1ccc(OC(=O)N2CCCC2)cc1)NC(=O)[C@@H]1CCCN1S(=O)(=O)c1ccccc1 [BOP] ?
Result :: 80.7
